Entries and their EC50
# Tested on: A549
# measurement.description: Cytotoxicity against human A549 cells
# Type: functional
# particulars: read-out: ED50 (the source's name)
Reply with just the number (in µg/mL).

Reference set (4 entries):
Can you look up the measured EC50 of "C#C/C=C\CCCCCCCCCCCCCCCC/C=C\CCCC/C=C\CCCCC#C[C@@H](O)C#CCCCCCC/C=C/[C@H](O)C#C" for me?
5.2

Can you look up the measured EC50 of C#C/C=C\CCCCCCCCCCCCC/C=C/C(O)CCCC/C=C\CCCCC#C[C@H](O)C#CCCCCCC/C=C/[C@H](O)C#C (stereo not given in full) for me?
4

Can you look up the measured EC50 of C#C/C=C\CCCCCCCCCCCCCC/C=C\CCCCC(O)/C=C/CCCC#C[C@H](O)C#CCCCCCC/C=C/[C@H](O)C#C (stereo not given in full) for me?
10

Can you look up the measured EC50 of "C#CCCCCCCCCCCCCCCCCC/C=C\CCCC/C=C\CCCCC#C[C@@H](O)C#CCCCCCCCC[C@@H](O)C#C" for me?
3.7

Below: the item to evaluate.
Can you look up the measured EC50 of C#C/C=C\CCCCCCCCCCCCCCC(O)/C=C/CCC/C=C\CCCCC#C[C@H](O)C#CCCCCCC/C=C/[C@H](O)C#C (stereo not given in full) for me?
4
